- systemTested: Phosphatidylinositol 4-phosphate 3-kinase C2 domain-containing subunit alpha (Homo sapiens)
- Sequence (O00443 whole entry, the tested form may be a part): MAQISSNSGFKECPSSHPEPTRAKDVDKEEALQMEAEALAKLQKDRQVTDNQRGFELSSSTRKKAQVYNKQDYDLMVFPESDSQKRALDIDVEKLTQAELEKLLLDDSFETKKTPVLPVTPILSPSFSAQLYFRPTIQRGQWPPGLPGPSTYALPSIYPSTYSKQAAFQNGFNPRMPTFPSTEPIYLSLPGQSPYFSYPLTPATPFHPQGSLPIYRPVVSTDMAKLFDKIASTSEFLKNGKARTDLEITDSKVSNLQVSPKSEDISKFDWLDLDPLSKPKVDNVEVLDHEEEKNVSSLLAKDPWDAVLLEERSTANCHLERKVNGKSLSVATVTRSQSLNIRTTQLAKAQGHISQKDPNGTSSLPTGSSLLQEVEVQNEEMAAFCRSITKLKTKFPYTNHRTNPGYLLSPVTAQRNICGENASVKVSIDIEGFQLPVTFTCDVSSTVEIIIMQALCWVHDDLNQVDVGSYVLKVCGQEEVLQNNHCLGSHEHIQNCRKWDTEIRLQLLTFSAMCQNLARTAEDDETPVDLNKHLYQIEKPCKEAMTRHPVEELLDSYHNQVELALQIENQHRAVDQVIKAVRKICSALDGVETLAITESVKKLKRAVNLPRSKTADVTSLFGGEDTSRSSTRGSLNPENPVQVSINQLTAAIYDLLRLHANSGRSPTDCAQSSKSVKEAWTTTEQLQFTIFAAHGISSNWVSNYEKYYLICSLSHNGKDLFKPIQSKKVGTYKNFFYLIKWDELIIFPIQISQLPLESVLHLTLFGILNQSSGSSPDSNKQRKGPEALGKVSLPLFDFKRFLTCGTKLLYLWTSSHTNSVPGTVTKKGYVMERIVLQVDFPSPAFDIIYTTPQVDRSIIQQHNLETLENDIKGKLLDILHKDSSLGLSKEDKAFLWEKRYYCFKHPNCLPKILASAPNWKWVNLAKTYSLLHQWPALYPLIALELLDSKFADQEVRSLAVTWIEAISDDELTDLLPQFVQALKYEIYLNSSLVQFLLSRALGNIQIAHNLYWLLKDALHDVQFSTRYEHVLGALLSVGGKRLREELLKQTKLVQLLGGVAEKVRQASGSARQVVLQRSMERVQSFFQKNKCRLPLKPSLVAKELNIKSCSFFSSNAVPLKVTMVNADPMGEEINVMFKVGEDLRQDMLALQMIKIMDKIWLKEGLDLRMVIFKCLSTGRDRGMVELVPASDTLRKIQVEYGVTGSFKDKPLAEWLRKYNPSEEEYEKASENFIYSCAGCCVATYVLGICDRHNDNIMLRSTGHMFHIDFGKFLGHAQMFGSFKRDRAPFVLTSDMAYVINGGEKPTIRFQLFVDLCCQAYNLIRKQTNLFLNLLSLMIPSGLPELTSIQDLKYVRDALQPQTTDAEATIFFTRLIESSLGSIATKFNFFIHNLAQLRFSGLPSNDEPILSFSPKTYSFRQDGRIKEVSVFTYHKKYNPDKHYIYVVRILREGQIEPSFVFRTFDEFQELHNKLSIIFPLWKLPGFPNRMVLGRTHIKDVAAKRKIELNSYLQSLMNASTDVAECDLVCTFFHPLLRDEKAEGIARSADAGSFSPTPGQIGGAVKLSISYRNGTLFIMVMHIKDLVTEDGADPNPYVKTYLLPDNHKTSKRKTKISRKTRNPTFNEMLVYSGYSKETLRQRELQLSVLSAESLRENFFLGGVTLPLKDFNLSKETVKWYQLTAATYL
- protocolSummary: Inhibition of human PIK3C2A using phosphatidylinositol as substrate and 10 uM ATP after 1 hr by TR-FRET based Adapta universal kinase assay
propertyMeasured: pIC50
pIC50 (log units): -log10 of the concentration in mol/L.

Item: "CN(C)C(=O)c1ccc2c(c1)c(C[C@H]1COCCN1c1nc3c(s1)C(=O)NC(C)(C)C3)cn2C" | pIC50: 5.02

====

- systemTested: Phosphatidylinositol 4,5-bisphosphate 3-kinase catalytic subunit beta isoform (Homo sapiens, UniProt P42338)
- Sequence (P42338 whole entry, canonical isoform): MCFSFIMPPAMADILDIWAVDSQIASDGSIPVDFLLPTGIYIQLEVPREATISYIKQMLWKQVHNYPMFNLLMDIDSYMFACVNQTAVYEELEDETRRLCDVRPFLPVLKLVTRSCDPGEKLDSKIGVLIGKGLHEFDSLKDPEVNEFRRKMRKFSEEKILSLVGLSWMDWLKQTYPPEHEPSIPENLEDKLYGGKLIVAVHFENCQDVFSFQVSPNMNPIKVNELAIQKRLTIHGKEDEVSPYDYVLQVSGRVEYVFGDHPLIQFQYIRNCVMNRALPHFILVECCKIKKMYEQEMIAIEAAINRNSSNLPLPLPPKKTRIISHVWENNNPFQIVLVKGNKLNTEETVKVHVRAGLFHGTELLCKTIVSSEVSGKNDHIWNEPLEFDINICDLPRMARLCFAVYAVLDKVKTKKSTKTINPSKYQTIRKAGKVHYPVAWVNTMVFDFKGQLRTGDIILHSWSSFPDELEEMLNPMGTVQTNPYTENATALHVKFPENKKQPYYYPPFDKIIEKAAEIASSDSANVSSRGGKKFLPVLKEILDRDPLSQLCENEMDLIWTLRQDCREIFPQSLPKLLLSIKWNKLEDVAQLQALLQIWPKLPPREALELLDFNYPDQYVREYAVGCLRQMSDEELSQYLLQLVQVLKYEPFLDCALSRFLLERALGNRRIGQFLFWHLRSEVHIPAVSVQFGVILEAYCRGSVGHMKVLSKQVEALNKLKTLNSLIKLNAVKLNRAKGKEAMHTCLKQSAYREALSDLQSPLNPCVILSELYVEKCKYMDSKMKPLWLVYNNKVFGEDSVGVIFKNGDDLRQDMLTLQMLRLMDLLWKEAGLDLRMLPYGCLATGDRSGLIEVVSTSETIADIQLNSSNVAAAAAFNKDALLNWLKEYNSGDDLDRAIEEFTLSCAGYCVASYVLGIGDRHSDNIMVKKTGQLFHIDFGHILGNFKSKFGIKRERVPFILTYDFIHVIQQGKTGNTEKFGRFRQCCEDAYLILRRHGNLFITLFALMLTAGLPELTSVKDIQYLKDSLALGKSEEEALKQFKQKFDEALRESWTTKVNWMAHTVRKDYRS
- protocolSummary: Inhibition of PI3Kbeta (unknown origin)
propertyMeasured: pIC50
Please express pIC50 as -log10 of the molar concentration.

Record "Cc1c(Cn2c(C)nc(=O)c3sc(N4CCOCC4)nc32)cccc1C(F)(F)F" . Reported pIC50: 7.80
